- Test system: HCC-2998 colon
- experiment: NCI tumour cell line growth inhibition, 48 h
I'd appreciate it if you could supply TGI values for the items below.
Please reply with the bare figure in µM and do not write the unit itself.

Fill in the blank: the reported TGI of CC1Cc2c(Cl)ncnc2N(C)c2ccccc21 (stereo not given) is ____.
10.6

I am curious: what TGI value has been reported for O=C(Nc1nc2c(C(F)(F)F)cccc2s1)c1cc(Cl)ccc1O ?
14.1

Quick one: TGI for CCCCCCCCCCCC(=O)N(CCCCCCCCC)CC(O)C(O)C(OC1OC(CO)C(O)C(O)C1O)C(O)CO (stereo not given) ?
32

Please give the measured TGI for this molecule: CC(=O)C1=C(C)N(Cc2ccccc2)C2(O)C=CC(=O)C3=C(O)c4ccccc4C(=O)C312 (stereo not given)
36.4

Report TGI for Nc1ccc(C#Cc2ccccc2C#CCCCCO)cc1 please.
31.3

----------
- Tested on: OVCAR-5 ovarian
- experiment: NCI tumour cell line growth inhibition, 48 h
quantity measured: TGI (µM)
Answer in µM, number only, no unit symbol.

Lookup: TGI / OVCAR-5 ovarian / NC1(c2cc3ccccc3s2)CCCCCC1
28.7

What reported TGI corresponds to N#CC1=C(O)NC(O)=C(C#N)C1c1c(Cl)cccc1Cl on OVCAR-5 ovarian?
98.5

Please provide the recorded TGI for CCN1CCN(c2ccc(NC(=O)Nc3nc4ccc(-c5ccccc5OC)cc4s3)cc2)CC1 , tested on OVCAR-5 ovarian.
3.37

API: value(readout=TGI, system=OVCAR-5 ovarian) for record Cc1cc(OCc2ccc(C(F)(F)F)cc2)c2c(c1)C(=O)C=C(NCCN1CCCC1)C2=O
12.3

----------
- Tested on: OVCAR-3 ovarian
- experiment: NCI tumour cell line growth inhibition, 48 h
Provide the reported TGI of each item.
Response body: numeric value in µM, unit text excluded.

Could you tell me which TGI is on file for Cc1cc2nc3c(C#N)c(C)c(CCCl)c(Cl)n3c2cc1C ?
3.56

// lookup TGI for OCc1ccc2c(c1)CC1(Cc3ccccc3C1)C2
68.5

TGI for N=C(N)SCc1nc(-c2ccc(Cl)cc2)no1 ?
26.2

Please give the measured TGI for this compound: Nc1nc(-c2ccc3c(c2)/C(=C\c2cc(Br)c(O)c(Br)c2)C(=O)N3)cs1
20.4

----------
Give measured TGI for each item. Keep answers brief.
- Tested on: 786-0 renal
- experiment: NCI tumour cell line growth inhibition, 48 h

Fill in the blank: the reported TGI of COc1cc2ncnc(Oc3ccc(NC(=O)Nc4ccc(CN5CCOCC5)c(C(F)(F)F)c4)c4ccccc34)c2cc1OC is ____.
6.74 µM

Which TGI reading was recorded for the compound N#Cc1sc2c(c1OC(=O)c1ccco1)c(=O)n(-c1ccccc1)c(=S)n2-c1ccccc1 ?
> 100 µM

Need TGI, item O=C(CC(=O)N1N=C(c2ccccc2)C(N=Nc2ccc(S(=O)(=O)CCOS(=O)(=O)O)cc2)C1=O)Nc1ccc(Cl)cc1 (stereo not given)
> 100 µM

// query TGI value for entry OC(CCN1CCN(CCOC(c2ccccc2)c2ccccc2)CC1)c1ccccc1 (stereo not given)
33.8 µM

# query: TGI of entry COc1nn(C)cc1Nc1nccc(-c2c[nH]c3c(NC(=O)[C@@H](C)N4CCN(C)CC4)cccc23)n1
> 100 µM

Reported TGI, compound Nc1nc(N)c2c(ccc3c2ccn3Cc2cccc([N+](=O)[O-])c2)n1 : ____
1.5 µM

State the recorded TGI for this entry: CC1=C(CCC(C)CO)O[C@H]2C[C@H]3[C@@H]4CC[C@H]5C[C@@H](O)CC[C@]5(C)[C@H]4CC(=O)[C@]3(C)[C@@H]12 (stereo not given in full)
52.4 µM

What value of TGI has been recorded for this entry: CCO/C=C\C12CCCC1NC(c1ccccc1)(c1ccccc1)O2 (stereo not given)
> 100 µM

Which TGI value belongs to CN(C(=O)C(C)(C)C)c1ccccc1I(=O)=O ?
> 100 µM

Record request: TGI value, item COC1C(O)C(C)OC(O[C@H]2CC[C@@]3(C)C(CC[C@@H]4[C@@H]3CC[C@]3(C)[C@@H](C(C)OC5OC(CO)C(O)C(O)C5O)CC[C@]43O)C2)C1O (stereo not given in full)
> 25 µM

Field request: TGI | item: O=C(Nc1ccc(Br)c2ccccc12)c1ccc2ccccc2c1O
15.9 µM

Using the record for O=C1c2ccccc2C(=O)N1CC#CCO , report its TGI.
> 100 µM

Given the entry COC1(OC)CC(CO)(COc2cc(Cl)nc(N)n2)C1 , report its measured TGI.
> 100 µM

Quick one: TGI of COc1ccc2c3ccnc(C(F)(F)F)c3n(CCCCN)c2c1 ?
19.4 µM

Given the entry c1ccc2c(c1)nnn2C1CCCCO1 (stereo not given) , report its measured TGI.
> 100 µM

Query: TGI; subject: CCOC(=O)c1nc2ccccc2nc1Nc1ccc(C(=O)OC)s1
> 100 µM

Look up TGI: COc1cc(C(c2ccccc2)N2C(=O)CC[C@H]2C(=O)O)cc(OC)c1OC (stereo not given in full)
> 100 µM

I have this compound here, CC1(C)OCC2OC(n3cnc4c(N)nc(Cl)nc43)C(OS(C)(=O)=O)C2O1 (stereo not given) , and I need its recorded TGI.
> 100 µM

So what does the record say about TGI for CCOC(=O)C1=C(Nc2ccc(OC)cc2)C(N)=NC1=N ?
> 100 µM

Suppose we examine the compound OCc1ccc2c(c1)CC1(Cc3ccccc3C1)C2 ; what TGI value has been reported?
29.6 µM
